Biological target: RmtA (Emericella nidulans, UniProt Q5VLE3)
Sequence (Q5VLE3 whole entry): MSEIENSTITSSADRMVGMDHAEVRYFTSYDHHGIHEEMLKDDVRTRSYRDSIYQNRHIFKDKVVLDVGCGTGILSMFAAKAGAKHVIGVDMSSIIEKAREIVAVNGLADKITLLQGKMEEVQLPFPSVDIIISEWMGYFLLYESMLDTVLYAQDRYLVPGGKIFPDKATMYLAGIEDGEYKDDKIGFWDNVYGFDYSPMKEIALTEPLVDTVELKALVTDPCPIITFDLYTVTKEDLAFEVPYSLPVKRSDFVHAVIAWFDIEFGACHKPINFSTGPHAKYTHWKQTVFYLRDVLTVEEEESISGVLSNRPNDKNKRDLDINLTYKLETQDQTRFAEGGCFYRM
Assay: Inhibition of Aspergillus nidulans recombinant GST-RmtA expressed in BL21 cells
Property Measured: IC50 (µM)
Please respond with the number in µM and leave the unit unwritten.

O=C1C=CC(=C(c2ccc(O)cc2)c2ccccc2C(=O)O)C=C1 = 296

Note: attention shifts to another entry.
Quick one: IC50 for Nc1cc(S(=O)(=O)O)cc2cc(S(=O)(=O)O)cc(O)c12 ?
220

* * *

A collection of compounds and their measured IC50
Molecular target: RmtA (Emericella nidulans)
Assay: Inhibition of Aspergillus nidulans recombinant GST-RmtA expressed in BL21 cells
Please respond with the number in µM and leave the unit unwritten.

COc1cc(/C=C/C(=O)CC(=O)/C=C/c2ccc(O)c(OC)c2)ccc1O [CURCUMIN] = 1100
O=S(=O)(O)c1cc(O)c2ccc(NC(=S)Nc3ccccc3)cc2c1 = 1360
Nc1ccc2c(O)cc(S(=O)(=O)O)cc2c1 = 590

Item O=C(O)c1ccc(Nc2nc(Cl)nc(Cl)n2)cc1-c1c2ccc(=O)cc-2oc2cc(O)ccc12 has what recorded IC50?
73

Fill in: IC50 of Cc1ccc(C(=O)Nc2ccc(S(=O)(=O)O)c3cc(S(=O)(=O)O)cc(S(=O)(=O)O)c23)cc1NC(=O)c1cccc(NC(=O)Nc2cccc(C(=O)Nc3cc(C(=O)Nc4ccc(S(=O)(=O)O)c5cc(S(=O)(=O)O)cc(S(=O)(=O)O)c45)ccc3C)c2)c1 [SURAMIN] is ___
5.9

Consider the compound O=C(Nc1ccccc1)Nc1ccc2c(O)cc(S(=O)(=O)O)cc2c1 and give its measured IC50.
1080

Field request: IC50 | item: O=C1OC2(c3ccc(O)cc3Oc3cc(O)ccc32)c2ccccc21 [FLUORESCEIN]
123

Which IC50 is reported for this compound? O=C(O)c1ccc(Nc2nc(Cl)nc(Cl)n2)cc1
406

# IC50 lookup, item CN(C)c1ccc(/N=N/c2ccccc2C(=O)O)cc1
2100

May I ask what IC50 has been recorded for O=[N+]([O-])c1ccc2c(/N=N/c3cccc4ccccc34)c(O)cc(S(=O)(=O)O)c2c1 ?
103
